Value source: patent US5569655A

Provide the reported Ki of each item.
# target_under_test: PCP recognition sites (PCP receptor)
# assay_notes: [3H]TCP radioreceptor assay (binding to PCP recognition sites)
# measurement_context: rat whole brain membranes, approx. 1 nM [3H]TCP; mean of at least two determinations
Write the numeric value and append its unit.

>>> result("c1ccc2c(c1)C1CC(c3ccn[nH]3)(c3ccn[nH]3)C2c2scc[n+]21 (centres unmarked)")
"21 nM"
>>> result("c1ccc2c(c1)C1CC(c3ccoc3)(c3ccoc3)C2c2n(Cc3cccc4ccccc34)cc[n+]21 (centres unmarked) [205(e)]")
"329 nM"
>>> result("c1ccc(Cn2cc[n+]3c2C2c4ccccc4C3CC2(c2cc[nH]n2)c2cc[nH]n2)cc1 (centres unmarked)")
"36.5 nM"
>>> result("c1ccc2c(c1)C1CC(c3ccoc3)(c3ccoc3)C2c2scc[n+]21 (racemic) [4(e)]")
"2.9 nM"
>>> result("c1ccc2c(c1)C1CC(c3ccoc3)(c3ccoc3)C2c2scc[n+]21 (single isomer, unassigned; (-)) [5(c)]")
"5 nM"

Go through the list and state Ki for each entry.
1. O=C1CC(C2(C3=COC(=O)C3)CC3c4ccccc4C2c2scc[n+]23)=CO1.[O-][Cl+3]([O-])([O-])[O-] (centres unmarked)
2. c1ccc(Cn2cc[n+]3c2C2c4ccccc4C3CC2(c2ccoc2)c2ccoc2)cc1 (centres unmarked)
3. Cn1cc[n+]2c1C1c3ccccc3C2CC1(c1ccoc1)c1ccoc1 (centres unmarked)

Response:
["640 nM", "7.7 nM", "2.9 nM"]
